biological target: Aspartate--tRNA(Asp/Asn) ligase (Mycobacterium tuberculosis (strain ATCC 25618 / H37Rv)); test: Assay for Asp RNA synthetase-1 from Mycobacterium tuberculosis; format: functional; parameters: scale not given: in the data most compounds retested in dose-response had high values; conditions: 30 µM
Measured Percent Effect by item
Quick note: give the figure in %, leave out the unit.

>>> print(df.to_string())
                                   compound  recorded_value
0  CCNC(=O)[C@@H]1C[C@@H](NC(=O)Cc2ccccn2)CN1CCCSC          -0.228

Query: Can you share its Percent Effect? I mean this compound: "Cc1nnc(N2CCC(CN(C)C(C)C)CC2)c(C#N)c1C"
Reply: -0.173
